This collection of values is drawn from patent US20200247894A1.

- experimental-system: T1, Human IL2Rγ extracellular domain expressed with a C-terminal mouse IgG2a Fc tag (human)
- T1 construct: whole entry is the Fc-fused construct; also called hIL-2Rg-mFc
- T1 chain: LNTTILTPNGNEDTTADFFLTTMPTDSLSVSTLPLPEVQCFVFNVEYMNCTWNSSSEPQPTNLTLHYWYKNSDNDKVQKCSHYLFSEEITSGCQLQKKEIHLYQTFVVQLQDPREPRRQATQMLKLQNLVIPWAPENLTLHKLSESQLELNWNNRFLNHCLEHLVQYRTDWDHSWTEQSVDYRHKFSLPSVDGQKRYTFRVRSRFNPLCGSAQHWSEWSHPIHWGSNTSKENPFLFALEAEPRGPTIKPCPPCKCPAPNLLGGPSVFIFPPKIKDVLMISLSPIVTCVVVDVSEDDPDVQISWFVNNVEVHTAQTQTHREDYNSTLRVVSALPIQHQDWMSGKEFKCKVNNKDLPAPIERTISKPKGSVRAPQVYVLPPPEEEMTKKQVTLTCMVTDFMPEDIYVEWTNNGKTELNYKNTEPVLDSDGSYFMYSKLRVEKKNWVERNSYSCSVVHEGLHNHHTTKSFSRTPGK
- run-description: SPR Biacore 4000, anti-hFc-captured mAb, 25 C
Would you kindly list koff for each of these binders?
Number in s⁻¹, nothing else.

Look up koff for this binder: H4H13541P (antibody, human IgG4 S228P, kappa, V domains shown, fully human anti-IL2Rgamma mAb, human IgG4 Fc) VH: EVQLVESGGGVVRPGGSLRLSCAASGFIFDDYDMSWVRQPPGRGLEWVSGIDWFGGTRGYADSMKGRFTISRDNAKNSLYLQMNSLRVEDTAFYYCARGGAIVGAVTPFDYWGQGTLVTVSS VL: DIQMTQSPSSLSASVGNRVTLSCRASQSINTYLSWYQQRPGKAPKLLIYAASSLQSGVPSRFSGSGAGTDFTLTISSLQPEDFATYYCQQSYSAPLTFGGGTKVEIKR 8.84e-05

Another: H4H12871P (antibody, human IgG4 S228P, kappa, V domains shown, fully human anti-IL2Rgamma mAb, human IgG4 Fc; also called REGN9434) VH: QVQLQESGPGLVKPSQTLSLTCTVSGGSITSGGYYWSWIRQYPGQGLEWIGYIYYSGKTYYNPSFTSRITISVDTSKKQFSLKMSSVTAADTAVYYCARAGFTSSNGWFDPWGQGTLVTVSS VL: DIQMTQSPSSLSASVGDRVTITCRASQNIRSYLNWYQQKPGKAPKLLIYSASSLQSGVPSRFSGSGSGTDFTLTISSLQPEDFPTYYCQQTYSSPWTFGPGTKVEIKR 5.22e-05
